# Test system: LU99A
# assay_name: relative viability (nuclei count vs DMSO), 5 days (fraction); higher = more cells survive
# condition_label: first compound 0.001 µM
observation_type: relative viability
Reply with just the number.

Before answering, review these 3 worked examples.
[
  {
    "compound": "Cc1cn(-c2cc(NC(=O)c3ccc(C)c(Nc4nccc(-c5cccnc5)n4)c3)cc(C(F)(F)F)c2)cn1 [Nilotinib] + CS(=O)(=O)N1CCN(Cc2cc3nc(-c4cccc5[nH]ncc45)nc(N4CCOCC4)c3s2)CC1 [Pictilisib] (partner 1 µM)",
    "relative viability": 0.295
  },
  {
    "compound": "Cc1cn(-c2cc(NC(=O)c3ccc(C)c(Nc4nccc(-c5cccnc5)n4)c3)cc(C(F)(F)F)c2)cn1 [Nilotinib] + COc1cc2c(Oc3ccc(NC(=O)C4(C(=O)Nc5ccc(F)cc5)CC4)cc3F)ccnc2cc1OCCCN1CCOCC1 [Foretinib] (partner 0.25 µM)",
    "relative viability": 0.784
  },
  {
    "compound": "Cc1cn(-c2cc(NC(=O)c3ccc(C)c(Nc4nccc(-c5cccnc5)n4)c3)cc(C(F)(F)F)c2)cn1 [Nilotinib] + O=C(CCCCCCC(=O)Nc1ccccc1)NO [Vorinostat] (partner 1 µM)",
    "relative viability": 0.429
  }
]

Then there is this compound:
What does the data say about its relative viability? Entry: Cc1cn(-c2cc(NC(=O)c3ccc(C)c(Nc4nccc(-c5cccnc5)n4)c3)cc(C(F)(F)F)c2)cn1 [Nilotinib] + Cc1nc(NC(=O)N2CCC[C@H]2C(N)=O)sc1-c1ccnc(C(C)(C)C(F)(F)F)c1 [Alpelisib] (partner 2 µM)
0.495

* * *

# Tested on: EPLC-272H
# assay_name: relative viability (nuclei count vs DMSO), 5 days (fraction); higher = more cells survive
# condition_label: first compound 0.003162 µM
# Lookup of reported relative viability keyed by entry
Reply with just the number.

Before answering, review these 2 worked examples.
[
  {
    "compound": "Cc1cn(-c2cc(NC(=O)c3ccc(C)c(Nc4nccc(-c5cccnc5)n4)c3)cc(C(F)(F)F)c2)cn1 [Nilotinib] + O=C(CCCCCCC(=O)Nc1ccccc1)NO [Vorinostat] (partner 1 µM)",
    "observation_type": "relative viability",
    "observed_result": 0.331
  },
  {
    "compound": "Cc1cn(-c2cc(NC(=O)c3ccc(C)c(Nc4nccc(-c5cccnc5)n4)c3)cc(C(F)(F)F)c2)cn1 [Nilotinib] + Cc1nc(NC(=O)N2CCC[C@H]2C(N)=O)sc1-c1ccnc(C(C)(C)C(F)(F)F)c1 [Alpelisib] (partner 2 µM)",
    "observation_type": "relative viability",
    "observed_result": 1.01
  }
]

What does the data say about its relative viability? Entry: Cc1cn(-c2cc(NC(=O)c3ccc(C)c(Nc4nccc(-c5cccnc5)n4)c3)cc(C(F)(F)F)c2)cn1 [Nilotinib] + CS(=O)(=O)N1CCN(Cc2cc3nc(-c4cccc5[nH]ncc45)nc(N4CCOCC4)c3s2)CC1 [Pictilisib] (partner 1 µM)
0.308

Try the compound Cc1cn(-c2cc(NC(=O)c3ccc(C)c(Nc4nccc(-c5cccnc5)n4)c3)cc(C(F)(F)F)c2)cn1 [Nilotinib] + N=C(N)NC(=N)NCCc1ccccc1 [Phenformin] (partner 250 µM)
0.283

* * *

# Tested on: NCI-H3122
# assay_name: relative viability (nuclei count vs DMSO), 5 days (fraction); higher = more cells survive
# condition_label: first compound 0.02 µM
# Lookup of reported relative viability keyed by entry
Reply with just the number.

[
  {
    "molecule": "CCNC(=O)c1noc(-c2cc(C(C)C)c(O)cc2O)c1-c1ccc(CN2CCOCC2)cc1 [Luminespib] + O=C(CCCCCCC(=O)Nc1ccccc1)NO [Vorinostat] (partner 1 µM)",
    "observed_result": 0.456
  },
  {
    "molecule": "CN1CCN(CCOc2cc(OC3CCOCC3)c3c(Nc4c(Cl)ccc5c4OCO5)ncnc3c2)CC1 [Saracatinib] + Cc1cc(Nc2cc(N3CCN(C)CC3)nc(Sc3ccc(NC(=O)C4CC4)cc3)n2)n[nH]1 [Tozasertib] (partner 0.1 µM)",
    "observed_result": 0.569
  },
  {
    "molecule": "CN1CCN(CCOc2cc(OC3CCOCC3)c3c(Nc4c(Cl)ccc5c4OCO5)ncnc3c2)CC1 [Saracatinib] + CS(=O)(=O)N1CCN(Cc2cc3nc(-c4cccc5[nH]ncc45)nc(N4CCOCC4)c3s2)CC1 [Pictilisib] (partner 1 µM)",
    "observed_result": 0.573
  }
]

Then there is this molecule:
What does the data say about its relative viability? Entry: CN1CCN(CCOc2cc(OC3CCOCC3)c3c(Nc4c(Cl)ccc5c4OCO5)ncnc3c2)CC1 [Saracatinib] + CCNC(=O)c1noc(-c2cc(C(C)C)c(O)cc2O)c1-c1ccc(CN2CCOCC2)cc1 [Luminespib] (partner 0.01 µM)
0.0855
